Origin of values: patent US20250195513A1

test_system: IRAK4 (Homo sapiens, UniProt Q9NWZ3)
Construct: endogenous in cells; host or cells: Karpas299
Sequence (Q9NWZ3 whole entry): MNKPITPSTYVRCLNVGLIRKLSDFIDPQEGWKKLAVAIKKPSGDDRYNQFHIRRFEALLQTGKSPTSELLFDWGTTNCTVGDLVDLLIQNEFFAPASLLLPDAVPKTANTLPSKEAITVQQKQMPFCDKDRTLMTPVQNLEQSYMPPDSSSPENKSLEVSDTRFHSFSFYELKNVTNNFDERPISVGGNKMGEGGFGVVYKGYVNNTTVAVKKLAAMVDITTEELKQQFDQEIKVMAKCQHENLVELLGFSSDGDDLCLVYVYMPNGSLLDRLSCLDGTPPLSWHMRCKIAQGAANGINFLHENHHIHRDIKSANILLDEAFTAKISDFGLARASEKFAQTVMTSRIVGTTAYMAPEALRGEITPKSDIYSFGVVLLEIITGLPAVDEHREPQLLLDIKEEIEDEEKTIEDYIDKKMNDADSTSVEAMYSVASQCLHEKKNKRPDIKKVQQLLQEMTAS
experimental_details: IRAK4 Degradation Assay with Human Serum (Karpas299, HTRF/TR-FRET)
Assay type: cell-based
experimental_setup: Karpas-299 in human serum, 24 hrs treatment; read-out: IRAK4 degradtion with human serum assay Dmax (%)

{"columns": ["molecule", "test_system", "Dmax [%]"],
 "data": [
  ["CC(C)(O)c1cc2nn([C@H]3CC[C@H](N4CCN(C(=O)C5CN(c6ccc(C7CCC(=O)NC7=O)nc6)C5)CC4)CC3)cc2cc1NC(=O)c1ccc2cc(C#N)cnn12 (some centres unmarked)", "IRAK4 (Homo sapiens, UniProt Q9NWZ3)", 96],
  ["CC(C)(O)c1cc2nn([C@H]3CC[C@H](N4CCN(CC5CN(c6cc(F)c([C@H]7CCC(=O)NC7=O)c(F)c6)C5)CC4)CC3)cc2cc1NC(=O)c1coc2cccnc12", "IRAK4 (Homo sapiens, UniProt Q9NWZ3)", 99],
  ["COC[C@@H]1CN(C2CCN(c3ccc(C4CCC(=O)NC4=O)nc3C)CC2)CCN1[C@H]1CC[C@H](n2cc3cc(NC(=O)c4ccc5cc(C#N)cnn45)c(C(C)(C)O)cc3n2)CC1 (some centres unmarked)", "IRAK4 (Homo sapiens, UniProt Q9NWZ3)", 96],
  ["C[C@@H]1CN(CC2CN(c3cc(F)c([C@H]4CCC(=O)NC4=O)c(F)c3)C2)CCN1[C@H]1CC[C@H](n2cc3cc(NC(=O)c4ccc5cc(C#N)cnn45)c(C(C)(C)O)cc3n2)CC1", "IRAK4 (Homo sapiens, UniProt Q9NWZ3)", 102],
  ["CC(C)(O)c1cc2nn(C34CC(N5CCN(CCc6cc(F)c([C@H]7CCC(=O)NC7=O)c(F)c6)CC5)(C3)C4)cc2cc1NC(=O)c1ccc2cc(C#N)cnn12", "IRAK4 (Homo sapiens, UniProt Q9NWZ3)", 94]
]}

----------
Overview of recorded IC50 for various compounds
Test system: TNF-α production in THP-1 cells
experimental_details: TNF-α Production Assay in THP-1 Cells (LPS stimulated)
Type: cell-based
experimental_setup: Homo sapiens, THP-1, 24 h
endpoint: IC50 (nM)

{"columns": ["compound", "unit_of_measure", "reported_value"],
 "data": [
  ["CC(C)(O)c1cc2nn([C@H]3CC[C@H](N4CCN(C(=O)[C@@H]5CCN(c6cc(F)c([C@H]7CCC(=O)NC7=O)c(F)c6)C5)CC4)CC3)cc2cc1NC(=O)c1ccc2cc(C#N)cnn12 [Example 181]", "nM", 30],
  ["C[C@@H]1CN([C@H]2CC[C@H](n3cc4cc(NC(=O)c5ccc6cc(C#N)cnn56)c(C(C)(C)O)cc4n3)CC2)CCN1C(=O)C1CN(c2cc(F)c([C@H]3CCC(=O)NC3=O)c(F)c2)C1 [Example 309]", "nM", 31],
  ["C[C@H]1CN([C@H]2CC[C@H](n3cc4cc(NC(=O)c5ccc6cc(C#N)cnn56)c(C(C)(C)O)cc4n3)CC2)CCN1C(=O)C1CN(c2cc(F)c([C@H]3CCC(=O)NC3=O)c(F)c2)C1 [Example 311]", "nM", 29],
  ["CC(C)(O)c1cc2nn([C@H]3CC[C@H](N4CCN(C5CCN(c6ccc(C7CCC(=O)NC7=O)cc6)CC5)CC4)CC3)cc2cc1NC(=O)c1ccc2cc(C#N)cnn12 (some centres unmarked) [Example 195]", "nM", 118],
  ["CC(C)(O)c1cc2nn(C34CCC(N5CCN(CCc6cc(F)c([C@H]7CCC(=O)NC7=O)c(F)c6)CC5)(CC3)CC4)cc2cc1NC(=O)c1ccc2cc(C#N)cnn12 [Example 151]", "nM", 27]
]}
